# assay-text: NCI Yeast Anticancer Drug Screen. Data for the cln2 rad14 strain (AID 165);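 also: 0% = growth equal to vehicle treated cultures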
# condition-set: S. cerevisiae cln2 rad14 strain, at 50.0 µM, hits give high values
This is part of a sample that, as a whole, favours compounds with a hit. Of some 79,000 tested, about 15% had one in any assay.
A collection of compounds and their measured growth inhibition
assay-metric: growth inhibition (%)

INSERT INTO measurements (compound, assay_metric, recorded_number) VALUES
  ('Cc1cc(N(CCCl)CCCl)ccc1C=Nc1ccc(-c2csc(Cc3ccccc3)n2)c(Cl)c1', 'growth inhibition', 91.1),
  ('O=[N+]([O-])c1ccc(CS(=O)(=O)C(Cl)(Cl)Cl)o1', 'growth inhibition', 94),
  ('OC(CN(CCCl)CCCl)C(O)C(O)C(O)CN(CCCl)CCCl (stereo not drawn)', 'growth inhibition', 82.1),
  ('N#C[S-].[Ce+3].c1cnc2c(c1)ccc1cccnc12.c1cnc2c(c1)ccc1cccnc12.c1cnc2c(c1)ccc1cccnc12', 'growth inhibition', 93.5),
  ('O=[N+]([O-])c1c(F)cc(F)c([N+](=O)[O-])c1F', 'growth inhibition', -28.2),
  ('C/C=C/c1cc2n(c1)C(=O)c1cc(OC3OC(C)C(NC)C(C)(O)C3O)c(C)c(O)c1NC2O (stereo not drawn)', 'growth inhibition', 2.75),
  ('N#CC1(c2ccccc2)CCCC1', 'growth inhibition', 11.6),
  ('Oc1c(I)cc(I)cc1I', 'growth inhibition', -32.6),
  ('Oc1cccc2cccnc12.[Cr]', 'growth inhibition', -7),
  ('CC(C)C1CN1CC(O)Cn1ccnc1[N+](=O)[O-] (stereo not drawn)', 'growth inhibition', 0),
  ('CCCCOc1ccc([As](=O)(O)O)cc1', 'growth inhibition', -19.2),
  ('O=C(O)c1ccccc1.O=C(O)c1ccccc1.O=C(O)c1ccccc1.O=C(O)c1ccccc1.[Cu].[Cu]', 'growth inhibition', 3.85),
  ('COc1cc(N=Nc2cccc(C(=O)O)c2)ccc1N(CCCl)CCCl', 'growth inhibition', 17.7),
  ('CC(C)(C)c1ccc(OP(=O)(Oc2ccccc2)Oc2ccccc2)cc1', 'growth inhibition', -30.9),
  ('c1cs[c]([Hg][c]2cccs2)c1', 'growth inhibition', 98),
  ('CCOC(=O)Cc1ccccc1', 'growth inhibition', -2.05),
  ('CCN(CC)CCN1CC2CCCCC2C1 (stereo not drawn)', 'growth inhibition', 5.45),
  ('CC(=O)O[C@H]1C(=O)O[C@@H]2C[C@H]3C(C)=CC(=O)[C@@H](O)[C@]3(C)[C@H]3[C@@]4(O)OC[C@]32[C@@H]1[C@@H](C)[C@H]4O', 'growth inhibition', 74.2),
  ('C=C[CH2][Sn]([CH2]C=C)([c]1ccccc1)[c]1ccccc1', 'growth inhibition', 6.7),
  ('O=[N+]([O-])/C=C/c1ccc(Cl)cc1[N+](=O)[O-]', 'growth inhibition', 99.3),
  ('CC(=O)C1(c2ccccc2)CCCN(C)CC1 (stereo not drawn)', 'growth inhibition', 1.35),
  ('CC12CC(=O)C3C(CCC4CC=CCC43C)C1CCC2=O (stereo not drawn)', 'growth inhibition', 5.8),
  ('O=C(OC1CN2CCC1CC2)N(c1ccccc1)c1ccccc1 (stereo not drawn)', 'growth inhibition', -4.75);
